System: DNA
assay text: Binding affinity to calf thymus DNA up to 5 mM
Format: nucleic-acid assay
measurement setup: Bos taurus
Calls of active or inactive are those of the source. The calls are words filed in the database; no cut-off is given here.
Returns: one label drawn from true for active, false for inactive

Past entries and their recorded results:
- molecule: "CN(C)CCn1nc2c3c(c(NCCCCCCN4CC4)ccc31)C(=O)c1ccncc1-2"
  target or system: "DNA"
  class: "true"
- molecule: "c1ccc2nc3ccccc3cc2c1"
  target or system: "DNA"
  class: "true"
- molecule: "CN(C)CCn1nc2c3c(c(NCCC#CCCN4CC4)ccc31)C(=O)c1ccncc1-2"
  target or system: "DNA"
  class: "true"

## Input How was CN(C)CCn1nc2c3c(c(NCCC#CCCO)ccc31)C(=O)c1ccncc1-2 classified in this test?
## Output true

## Input Please state the recorded outcome for this molecule: O=C1c2c(O)ccc(O)c2C(=O)c2c(NCCNCCO)ccc(NCCNCCO)c21
## Output true

## Input Recorded test call requested for CN(C)CCn1nc2c3c(c(NCCc4c[nH]c5ccccc45)ccc31)C(=O)c1ccncc1-2
## Output false

## Input Check the results log: what was the call for CN(C)CCn1nc2c3c(c(NCCCCN4CC4)ccc31)C(=O)c1ccncc1-2 ?
## Output true

## Input Test call, this molecule: CN(C)CCn1nc2c3c(c(N(C)C)ccc31)C(=O)c1ccncc1-2
## Output true

## Input Hi, sorry to bother you, what did the test record for CN(C)CCn1nc2c3c(c(NCCC4CCCN4C)ccc31)C(=O)c1ccncc1-2 (stereo not given) ?
## Output true

## Input Which outcome was assigned to CN(C)CCn1nc2c3c(c(NCCSCCO)ccc31)C(=O)c1ccncc1-2 in this test?
## Output true
